- Target of assay: MCR-1 (Homo sapiens)
- Construct: expressed in transfected cells; host or cells: HEK 293
- Method description: Melanocortin receptor binding assay, competition with 125I-HP 467, HEK 293 cells expressing hMCR-1
- Study conditions: 10 μM isoquinoline compound, HEK 293 cells expressing MCR-1, duplicate 2
Measured property: % Disp. of 125I-HP 467 (second of duplicate) (%)

INSERT INTO results (compound, target_of_assay, measurement) VALUES
  ('CNC(CN)CCCCN1Cc2ccccc2C(CNC2CCCCC2)C1c1ccc(Cl)cc1Cl (stereo not shown)', 'MCR-1 (Homo sapiens)', 81);

P: CNC(CN)CCCCN1Cc2ccccc2C(CNC2CCCCC2)C1c1ccccc1Br (stereo not shown)
Q: CNC(CN)CCCCN1Cc2ccccc2C(CNC2CCCCC2)C1c1ccc(O)cc1 (stereo not shown)
Prompt: Lab log: flag the item ( P or Q ) with the smaller % Disp. of 125I-HP 467 (second of duplicate) figure. Output the label that corresponds to your choice.
Completion: Q

A: CNC(CN)CCCCN1Cc2ccccc2C(CNC2CCCCC2)C1c1ccc(F)cc1 (stereo not shown)
B: CNC(CN)CCCCN1Cc2ccccc2C(CNC2CCCCC2)C1c1cccc(O)c1 (stereo not shown)
Prompt: Kindly identify which of A and B has the larger recorded % Disp. of 125I-HP 467 (second of duplicate) value. Please indicate the selected item by its label.
Completion: A

----------
- Target of assay: MCR-4 (Homo sapiens, UniProt P32245)
- Construct: expressed in transfected cells; host or cells: HEK 293
- Sequence (P32245 whole entry): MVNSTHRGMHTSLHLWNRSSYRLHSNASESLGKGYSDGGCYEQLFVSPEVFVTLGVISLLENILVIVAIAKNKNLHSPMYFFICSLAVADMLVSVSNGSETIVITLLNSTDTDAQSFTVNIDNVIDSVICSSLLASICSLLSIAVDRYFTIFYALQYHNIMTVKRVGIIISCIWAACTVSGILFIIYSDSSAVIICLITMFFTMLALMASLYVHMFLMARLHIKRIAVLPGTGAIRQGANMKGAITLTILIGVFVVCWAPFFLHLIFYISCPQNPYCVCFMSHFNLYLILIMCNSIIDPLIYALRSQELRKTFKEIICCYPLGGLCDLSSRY
- Method description: Melanocortin receptor binding assay, competition with 125I-HP 467, HEK 293 cells expressing hMCR-4
- Study conditions: TRG 2408 and TRG 2409 libraries; inhibition of 125I-HP 467 binding; read-out: MC-4 IC50
Measured property: IC50 (µM)

INSERT INTO results (molecule, measurement) VALUES
  ('NCCNC(CN)CCN1Cc2ccccc2C(CNC2CCCCC2)C1c1ccc(Cl)cc1Cl (centres unmarked) [TRG 2408-103]', 8.8);

P: NCCNC(CN)CCCN1Cc2ccccc2C(CNC2CCCCC2)C1c1ccc(Cl)cc1Cl (centres unmarked) [TRG 2408-73]
Q: CCNc1ccc(C2C(CNC3CCCCC3)c3ccccc3CN2CC[C@@H](CN)NC)cc1 (some centres unmarked) [TRG 2408-90]
R: CNC(CN)CCCN1Cc2ccccc2C(CNC2CCCCC2)C1c1ccc(Cl)cc1Cl (centres unmarked) [TRG 2408-70]
Prompt: rank_up(items): orders items by reported IC50 in ascending numerical order. # output: labels, in the requested order
Completion: R, P, Q
(R: 2.5 µM, P: 4.05 µM, Q: 25.2 µM)

a: NCCNC(CN)CCCCN1Cc2ccccc2C(CNC2CCCCC2)C1c1ccc(-c2ccccc2)cc1 (centres unmarked) [TRG 2408-23]
b: NCC(N)CCN1Cc2ccccc2C(CNC2CCCCC2)C1c1ccc(Cl)cc1Cl (centres unmarked) [TRG 2408-101]
Prompt: Return label of the item with the larger IC50. Candidates: a , b . Refer to your chosen entry by its label in the reply.
Completion: a

a: NCC(N)CCCN1Cc2ccccc2C(CNC2CCCCC2)C1c1ccc(-c2ccccc2)cc1 (centres unmarked) [TRG 2408-81]
b: CNC(CN)CCN1Cc2ccccc2C(CNC2CCCCC2)C1c1ccc(Cl)cc1Cl (centres unmarked) [TRG 2408-100]
Prompt: Between a and b , which one shows the larger IC50 value? Reply briefly: the label of your chosen item.
Completion: a

----------
- Target of assay: MCR-1 (Homo sapiens, UniProt Q01726)
- Construct: expressed in transfected cells; host or cells: HEK 293
- Sequence (Q01726 whole entry): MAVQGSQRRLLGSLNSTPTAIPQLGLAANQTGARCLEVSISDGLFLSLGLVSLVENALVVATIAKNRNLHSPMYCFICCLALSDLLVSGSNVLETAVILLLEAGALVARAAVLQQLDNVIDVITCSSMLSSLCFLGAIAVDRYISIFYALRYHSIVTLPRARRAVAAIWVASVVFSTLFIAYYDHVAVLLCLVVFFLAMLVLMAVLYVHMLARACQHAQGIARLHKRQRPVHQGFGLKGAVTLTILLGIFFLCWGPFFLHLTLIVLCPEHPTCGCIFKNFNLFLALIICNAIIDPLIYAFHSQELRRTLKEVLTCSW
- Method description: Melanocortin receptor binding assay, competition with 125I-HP 467, HEK 293 cells expressing hMCR-1
- Study conditions: inhibition of binding of 125I-HP 467, HEK 293 cells expressing MCR-1; TRG 2414 library; read-out: MC-1 IC50
pIC50: −log10 of the molar value.
Measured property: pIC50

Reference set, count: 3
INSERT INTO measurements (compound, measurement) VALUES
  ('CCCOc1ccc(C2C(CNCc3ccc(OC)cc3)c3ccccc3CN2CCCCC(CN)NCC(C)c2ccc(CC(C)C)cc2)cc1 (stereo not shown) [TRG 2414-184]', 4.77),
  ('NCC(CCCCN1Cc2ccccc2C(CNCc2ccccc2)C1c1cccc(Oc2ccccc2)c1)NCc1ccccc1 (stereo not shown) [TRG 2414-111]', 5.11),
  ('COc1ccccc1CCNCC1c2ccccc2CN(CCCCC(CN)NCc2ccccc2)C1c1ccc(Cl)cc1Cl (mixture of isomers) [TRG 2414-11]', 5.74);

A: CCCOc1ccc(C2C(CNCc3ccccc3OCC)c3ccccc3CN2CCCCC(CN)NCC(C)c2ccc(CC(C)C)cc2)cc1 (stereo not shown) [TRG 2414-168]
B: COc1ccc(CNCC2c3ccccc3CN(CCCCC(N)CN)C2c2ccc(Oc3ccccc3)cc2)cc1 (stereo not shown) [TRG 2414-141]
Prompt: Min pIC50? A | B Respond using the label that marks the chosen record.
Completion: A
(A: 4.66, B: 5.69)

I: NCC(CCCCN1Cc2ccccc2C(CNC2CCCCC2)C1c1cc(C(F)(F)F)cc(C(F)(F)F)c1)NCCc1ccccc1 (stereo not shown) [TRG 2414-78]
II: COc1cccc(CNCC2c3ccccc3CN(CCCCC(N)CN)C2c2ccc(Cl)cc2Cl)c1 (stereo not shown) [TRG 2414-17]
Prompt: Which is greater in pIC50, the first item I or the second item II ? Write the label of whichever entry you select.
Completion: II

----------
- Target of assay: MCR-1 (Homo sapiens, UniProt Q01726)
- Construct: expressed in transfected cells; host or cells: HEK 293
- Method description: Melanocortin receptor binding assay, competition with 125I-HP 467, HEK 293 cells expressing hMCR-1
- Study conditions: competition with 125I-HP 467, HEK 293 cells expressing MCR-1; read-out: MC-1 IC50
pIC50: −log10 of the molar value.
Measured property: pIC50

INSERT INTO assay_data (compound, measured_property, measurement) VALUES
  ('CCCCNc1ccc(C2C(CNCCc3ccccc3)c3ccccc3CN2CCCCC(N)CN)cc1 (stereo not shown)', 'pIC50', 6.60),
  ('NCCNC(CN)CCCN1Cc2ccccc2C(CN)C1c1ccc(-c2ccccc2)cc1 (stereo not shown)', 'pIC50', 5.94),
  ('CCNc1ccc(C2C(CNCCc3ccccc3)c3ccccc3CN2CCCCC(CN)NCCC2CCCCC2)cc1 (stereo not shown)', 'pIC50', 6.66),
  ('NCC(CCCN1Cc2ccccc2C(CNCCc2ccccc2)C1c1ccc(-c2ccccc2)cc1)NCCc1ccccc1 (stereo not shown)', 'pIC50', 5.91);

a: CNC(CNC(CN)CCCCN1Cc2ccccc2C(CNC2CCCCC2)C1c1ccc(-c2ccccc2)cc1)Cc1ccccc1 (stereo not shown)
b: CCNc1ccc(C2C(CNC3CCCCC3)c3ccccc3CN2CCCCC(CN)NCc2ccc(Cl)cc2)cc1 (stereo not shown)
c: CNC(CN)CCCCN1Cc2ccccc2C(CNC2CCCCC2)C1c1ccc(NCc2ccccc2)cc1 (stereo not shown)
d: CCCCNc1ccc(C2C(CN)c3ccccc3CN2CCCCC(CN)NCCC2CCCCC2)cc1 (stereo not shown)
Prompt: Hello, I need these entries ordered by pIC50, highest reading first. Thanks! Write out the labels following the order that was asked for.
Completion: d, b, a, c

A: NCC(N)CCCCN1Cc2ccccc2C(CNCCc2ccccc2)C1c1ccc(-c2ccccc2)cc1 (stereo not shown)
B: CNCCNC(CN)CCCN1Cc2ccccc2C(CN)C1c1ccc(-c2ccccc2)cc1 (stereo not shown)
C: CCCCNc1ccc(C2C(CNCCc3ccccc3)c3ccccc3CN2CCCCC(CN)NC)cc1 (stereo not shown)
D: CCNc1ccc(C2C(CNCCc3ccccc3)c3ccccc3CN2CCCCC(CN)NCCN)cc1 (stereo not shown)
Prompt: Let's sort these by pIC50, smallest first. Go ahead? # output: labels, in the requested order
Completion: B, A, D, C
(B: 5.87, A: 6.22, D: 6.52, C: 6.72)

I: CCCCNC(CN)CCCCN1Cc2ccccc2C(CNC2CCCCC2)C1c1ccc(-c2ccccc2)cc1 (stereo not shown)
II: CCNc1ccc(C2C(CNC3CCCCC3)c3ccccc3CN2CCCCC(CN)NCc2ccccc2)cc1 (stereo not shown)
III: CCNc1ccc(C2C(CNC3CCCCC3)c3ccccc3CN2CCCCC(CN)NCCc2ccc(OC)cc2)cc1 (stereo not shown)
IV: CCCCNc1ccc(C2C(CN)c3ccccc3CN2CCCCC(CN)N2CCCC2)cc1 (stereo not shown)
Prompt: Hello, I need these entries ordered by pIC50, highest reading first. Thanks! Use the labels to give the ranking in the order requested.
Completion: IV, II, III, I
(IV: 7.70, II: 6.89, III: 6.55, I: 6.21)

----------
- Target of assay: MCR-4 (Homo sapiens, UniProt P32245)
- Construct: expressed in transfected cells; host or cells: HEK 293
- Method description: Melanocortin receptor binding assay, competition with 125I-HP 467, HEK 293 cells expressing hMCR-4
- Study conditions: inhibition of binding of 125I-HP 467, HEK 293 cells expressing MCR-4; read-out: MC-4 IC50
pIC50: −log10 of the molar value.
Measured property: pIC50

1: CCCCNc1ccc(C2C(CNCCc3ccccc3)c3ccccc3CN2CCCC(CN)NCCC2CCCCC2)cc1 (stereo not drawn) [TRG 2411-200]
2: CCNc1ccc(C2C(CN)c3ccccc3CN2CCCC(CN)NCCCCO)cc1 (stereo not drawn) [TRG 2419-8]
3: CCNc1ccc(C2C(CNCCc3ccccc3)c3ccccc3CN2CCCC(CN)NCCc2ccccc2)cc1 (stereo not drawn) [TRG 2411-155]
Prompt: Put the items in order so that reported pIC50 rises from first to last. Enter labels, ranked according to the request.
Completion: 2, 1, 3
(2: 5.16, 1: 5.87, 3: 6.14)

a: CCCCNc1ccc(C2C(CNCCc3ccccc3)c3ccccc3CN2CCCC(CN)NCCc2ccccc2)cc1 (stereo not drawn) [TRG 2411-193]
b: CCCOc1ccc(C2C(CN)c3ccccc3CN2CCCCC(CN)NCC)cc1 (stereo not drawn) [TRG 2415-17]
Prompt: Sorting ascending by pIC50, which comes first: a or b ? Let me know the label of the one you choose.
Completion: b
